Attribute: GI50
- Test system: SF-268
- Protocol: NCI tumour cell line growth inhibition, 48 h
Active and inactive are the calls of the source. Rule as the data show it: active = GI50 up to about 1.1 µM and inactive = higher.
Test readout: GI50

INSERT INTO assay_data (compound, meas_value) VALUES
  ('C#Cc1cc(Br)c(OC(=O)C(C)(C)C)c(-c2cc(C#C)cc(Br)c2OC(=O)C(C)(C)C)c1', '50 µM (inactive)'),
  ('NCC(O)CNCC/C=C\C/C=C\C/C=C\C/C=C\C/C=C\C/C=C\CCCCC/C=C\CCNCC(O)CN (centres undefined)', '1.83 µM (inactive)'),
  ('CCOc1cc(C(=O)O)c2c(ccc3ccc(OC)c(OC)c32)c1OC', '> 100 µM (inactive)'),
  ('O=C(c1nc2ccccc2nc1O)C(O)c1ccccc1 (centres undefined)', '86.7 µM (inactive)'),
  ('CCOC(=O)NC(=O)c1cn(-c2ccc(CCOC(=O)CCCCCCCCC(=O)OCCc3ccc(-n4cc(C(=O)NC(=O)OCC)c(=O)[nH]c4=O)cc3)cc2)c(=O)[nH]c1=O', '> 100 µM (inactive)'),
  ('Brc1c(C#CCC(c2ccccc2)(c2ccccc2)c2ccccc2)ccc(C#CCC(c2ccccc2)(c2ccccc2)c2ccccc2)c1Br', '> 100 µM (inactive)'),
  ('N#Cc1ccccc1-c1nc2c3c(c(N)ccc3n1)C(=O)c1ccccc1-2', '51.5 µM (inactive)'),
  ('CCCCCCCCCCCCCCCCOCC(CC(F)(F)P(=O)(OCC)OCC)OC(C)=O (centres undefined)', '12.6 µM (inactive)'),
  ('NC1=C(N2CCOCC2)C(=O)NC2=N/C(=C\c3ccccc3O)C(=O)N21', '> 100 µM (inactive)');

###

- Test system: SNB-19
- Protocol: NCI tumour cell line growth inhibition, 48 h
Calls of active or inactive are those of the source. Rule as the data show it: active = GI50 up to about 1.1 µM and inactive = higher.
Items are presented alongside their recorded GI50.
Test readout: GI50

INSERT INTO assay_data (compound, test_readout, meas_value) VALUES
  ('Cc1ccc(NC(=O)C2C(=O)C(=O)N(c3ccc(C)cc3)C2=O)cc1 (stereo not given)', 'GI50', '> 100 µM (inactive)'),
  ('CCOC(=O)NC(=O)c1cn(-c2ccc(CCOC(=O)CCCCCCCCC(=O)OCCc3ccc(-n4cc(C(=O)NC(=O)OCC)c(=O)[nH]c4=O)cc3)cc2)c(=O)[nH]c1=O', 'GI50', '59 µM (inactive)'),
  ('O=C(CC(=O)C1CCOC1=O)C(=O)Nc1ccc(Cl)cc1Cl (stereo not given)', 'GI50', '> 100 µM (inactive)'),
  ('COc1ccc(-c2cc(=O)c3ccc(O)cc3o2)c(OC)c1OC', 'GI50', '65 µM (inactive)'),
  ('COc1ccccc1/C=C1\CCC(CCN2CCOCC2)C1=O (stereo not given)', 'GI50', '> 100 µM (inactive)'),
  ('O=C(Nc1c(O)[nH]c(=S)[nH]c1=O)c1ccccn1', 'GI50', '> 100 µM (inactive)'),
  ('CCOc1cc(NC(C)=O)ccc1C(=O)NN1C(=O)CSC1c1ccccc1 (stereo not given)', 'GI50', '> 100 µM (inactive)'),
  ('CCOP(=O)(OCC)OC1C=CC2CCC1C2 (stereo not given)', 'GI50', '> 100 µM (inactive)'),
  ('O=[N+]([O-])/C(Cl)=C(/C(Cl)=C(Cl)Cl)N1CCOCC1', 'GI50', '17.6 µM (inactive)'),
  ('O=C1c2ccccc2-n2c1nc1cc(Cl)ccc1c2=O', 'GI50', '> 100 µM (inactive)');

###

- Test system: HCC 2998
- Protocol: NCI tumour cell line growth inhibition, 48 h
Active and inactive are the calls of the source. Cut-off read from the data, not from the text of the source: active = GI50 up to about 1.1 µM and inactive = higher.
Test readout: GI50

INSERT INTO assay_data (compound, meas_value) VALUES
  ('Cc1cc2c(C(C)C)c(O)c(O)c(/C=N/c3cc(C(F)(F)F)ccc3Cl)c2c(O)c1-c1c(C)cc2c(C(C)C)c(O)c(O)c(/C=N/c3cc(C(F)(F)F)ccc3Cl)c2c1O', '62.7 µM (inactive)'),
  ('CCOC(=O)C(C)c1nc2cc(F)c(N3CCOCC3)cc2[nH]c1=O (stereo unspecified)', '> 100 µM (inactive)'),
  ('CC(C)(C)OC1=C(OC(C)(C)C)C(O)(c2ccccc2)C1=O (stereo unspecified)', '> 100 µM (inactive)'),
  ('CC(C)/C(Cl)=N\OC(=O)Nc1ccc(F)c([N+](=O)[O-])c1', '10.5 µM (inactive)'),
  ('CCOC(=O)C12C3CCC1C2C(=O)C3 (stereo unspecified)', '> 100 µM (inactive)'),
  ('COc1ccc2c3c1C(=O)CCCC3CO2 (stereo unspecified)', '> 100 µM (inactive)'),
  ('CCOc1cc(C(=O)O)c2c(ccc3ccc(OC)c(OC)c32)c1OC', '> 100 µM (inactive)'),
  ('CNC1NC(=O)c2ccccc2N1Cc1ccc(F)cc1 (stereo unspecified)', '> 100 µM (inactive)'),
  ('CC1=NN(c2nc(N)nc(COc3ccc(N)cc3)n2)C(C)(C)C1', '> 100 µM (inactive)'),
  ('O=[N+]([O-])c1ccc(-c2ccc(C3=Nn4c(nnc4-c4ccc(Cl)cc4)SC3)o2)cc1', '> 100 µM (inactive)'),
  ('CC(=O)Nc1ccc2nc(-c3ccccn3)c(-c3ccccn3)nc2c1', '> 100 µM (inactive)');

###

- Tested on: SNB-19
- Protocol: NCI tumour cell line growth inhibition, 48 h
Calls of active or inactive are those of the source. Rule as the data show it: active = GI50 up to about 1.1 µM and inactive = higher.
Test readout: GI50

INSERT INTO results (compound, meas_value) VALUES
  ('O=C1C=CC(=CC=C2C=CN(CCCCCCCCCCC(=O)NCCCCCCCCCCCC(=O)O)C=C2)C=C1', '> 100 µM (inactive)'),
  ('CN(C)c1ccc(/C=c2/sc3nc(=O)c(-c4ccccc4NC(=O)C(F)(F)F)nn3c2=O)cc1', '> 100 µM (inactive)'),
  ('CCCCCCC(C)c1ccc2c(c1)C(=O)c1nc3ccncc3c(=O)n1-2 (stereo not given)', '4.81 µM (inactive)'),
  ('Cc1cc(OP2(=O)NCc3ncccc3O2)ccc1Cl (stereo not given)', '> 100 µM (inactive)'),
  ('CSc1cc(Cl)c(C(=O)Nc2ccccc2)cc1S(=O)(=O)n1ccnc1O', '> 100 µM (inactive)');

###

Quick list: GI50 per entry.
- Test system: M14
- Protocol: NCI tumour cell line growth inhibition, 48 h
Where a name gives a salt, the structure may show the parent alone. Active and inactive are the calls of the source. No stated cut-off is given here; in the data, active = GI50 up to about 1.1 µM and inactive = higher.
Test readout: GI50

INSERT INTO results (compound, meas_value) VALUES
  ('CC1(C)[C@@H]2CC[C@@]1(C)C1(S[S+]1[O-])C21Cc2ccccc2C1 (stereo not given in full)', '33.4 µM (inactive)'),
  ('Cc1cc(C(=O)CCCCOc2ccc(C3=NCCO3)cc2)c(C)n1C', '37.8 µM (inactive)'),
  ('CC(C)CCOC(=O)NC(Nc1ccc(F)cc1)(C(F)(F)F)C(F)(F)F', '6.62 µM (inactive)'),
  ('CCC1CC2CN3CCc4c([nH]c5c(-c6c(OC)ccc7c8c([nH]c67)[C@]6(C(=O)OC)CC7CC(CC)C6N(CC8)C7)c(O)ccc45)[C@](C(=O)OC)(C2)C13 (stereo not given in full)', '24.9 µM (inactive)'),
  ('NCCCNCCCCNCCCN [SPERMINE TETRAHYDROCHLORIDE]', '9.66 µM (inactive)'),
  ('CCOC(=O)C1C(=S)NC(=O)C1C#N (stereo not given)', '> 100 µM (inactive)'),
  ('CC1=NN(c2ccccc2)C(=O)/C1=C\c1ccc([N+](=O)[O-])cc1', '30.8 µM (inactive)'),
  ('COc1cc(COC(=O)N2CCCCC2C(=O)O)c([N+](=O)[O-])cc1OC (stereo not given)', '> 100 µM (inactive)'),
  ('Cc1nc(Cc2n[nH]c(C)n2)n[nH]1', '> 100 µM (inactive)'),
  ('CCOC(=O)/C=C(/C)Nc1nc2c(c(C(=O)OC)c1C#N)CCCC2', '> 100 µM (inactive)');

###

- Test system: DU-145
- Protocol: NCI tumour cell line growth inhibition, 48 h
The source made the active and inactive calls. Rule as the data show it: active = GI50 up to about 1.1 µM and inactive = higher.
// reported GI50 for each item listed
Test readout: GI50

INSERT INTO results (compound, meas_value) VALUES
  ('O=c1[nH]c(=O)n(C2OC(CO)C(O)C2O)cc1Oc1ccccc1 (stereo unspecified)', '> 100 µM (inactive)'),
  ('CCOC(=O)C12C3CCC1C2C(=O)C3 (stereo unspecified)', '> 100 µM (inactive)'),
  ('CC1(C)[C@@H]2CC[C@@]1(C)C1(S[S+]1[O-])C21Cc2ccccc2C1 (stereo partly specified)', '21.3 µM (inactive)'),
  ('C(=N\Cc1ccccc1)/c1ccccc1-c1ccccc1/C=N/Cc1ccccc1', '> 10 µM (inactive)'),
  ('O=c1[nH][nH]c(=O)c2c1ccc1oc3ccccc3c12', '> 100 µM (inactive)'),
  ('CSc1c(C(=O)Nc2ccccc2)c(N)n(N)c(=O)c1C#N', '> 100 µM (inactive)');
